ASSAY_SYSTEM: panel of 255 wild-type kinases (Homo sapiens, UniProt P51957)
Sequence (P51957 whole entry): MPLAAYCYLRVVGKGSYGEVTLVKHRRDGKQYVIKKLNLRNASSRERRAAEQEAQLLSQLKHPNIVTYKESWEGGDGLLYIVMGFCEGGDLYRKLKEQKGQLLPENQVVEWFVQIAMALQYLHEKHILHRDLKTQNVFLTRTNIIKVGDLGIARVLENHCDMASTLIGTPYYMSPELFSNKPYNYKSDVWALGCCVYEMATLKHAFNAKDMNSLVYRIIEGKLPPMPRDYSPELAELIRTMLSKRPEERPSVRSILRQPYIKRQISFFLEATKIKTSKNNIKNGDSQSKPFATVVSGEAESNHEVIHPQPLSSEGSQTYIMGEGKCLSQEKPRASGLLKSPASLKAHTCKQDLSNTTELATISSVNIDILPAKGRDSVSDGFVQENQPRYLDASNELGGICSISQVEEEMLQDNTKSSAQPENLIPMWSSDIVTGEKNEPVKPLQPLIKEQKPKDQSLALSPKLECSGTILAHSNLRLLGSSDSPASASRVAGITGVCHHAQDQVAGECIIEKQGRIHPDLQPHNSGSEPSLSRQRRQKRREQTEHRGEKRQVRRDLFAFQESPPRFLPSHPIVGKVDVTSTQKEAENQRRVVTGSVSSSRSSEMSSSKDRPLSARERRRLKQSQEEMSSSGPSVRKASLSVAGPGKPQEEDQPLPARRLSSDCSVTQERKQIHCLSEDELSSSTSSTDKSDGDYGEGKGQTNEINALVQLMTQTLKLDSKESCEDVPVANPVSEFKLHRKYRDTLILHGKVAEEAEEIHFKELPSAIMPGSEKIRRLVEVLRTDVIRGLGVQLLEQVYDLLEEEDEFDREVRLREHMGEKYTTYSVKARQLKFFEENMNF
ASSAY_SUMMARY: Kinase panel profiling at 1 µmol/L (MSA or IMAP), percentage inhibition
Assay type: biochemical
CONDITION_SET: NEK4; 1 µmol/L single concentration; read-out: %-inhibition, NEK4
Reported inhibition at 1 µM by item:
READOUT_KIND: inhibition at 1 µM (%)

MOLECULE: CCN1CCN(c2ccc(Nc3cc(N(C)C(=O)Nc4c(Cl)c(OC)cc(OC)c4Cl)ncn3)cc2)CC1
NUMERIC_RESULT: 13

MOLECULE: CCN1C(=O)N(c2c(F)c(OC)cc(OC)c2F)Cc2cnc3[nH]c(CN4CCOCC4)cc3c21
NUMERIC_RESULT: 6.33

MOLECULE: Cn1cc(-c2cc3c(N4CCN(c5ncc([C@@](C)(N)c6ccc(F)cc6)cn5)CC4)ncnn3c2)cn1
NUMERIC_RESULT: 12

MOLECULE: FC(F)(F)c1ccc(CNc2ccc(Cc3c[nH]c4ncc(Cl)cc34)cn2)cn1
NUMERIC_RESULT: 2.69

MOLECULE: CN1CCN(c2ccc(C(=O)Nc3n[nH]c4ccc(Cc5cc(F)cc(F)c5)cc34)c(NC3CCOCC3)c2)CC1
NUMERIC_RESULT: 1.25

MOLECULE: Cn1cnc2c(F)c(Nc3ccc(Br)cc3Cl)c(C(=O)NOCCO)cc21
NUMERIC_RESULT: 3.45

MOLECULE: C=CC(=O)N1CCC([C@@H]2CCNc3c(C(N)=O)c(-c4ccc(Oc5ccccc5)cc4)nn32)CC1
NUMERIC_RESULT: 1

MOLECULE: CCn1c(=O)c(-c2cc(NC(=O)Nc3ccccc3)c(F)cc2Br)cc2cnc(NC)cc21
NUMERIC_RESULT: 19

MOLECULE: C[C@H](Nc1ncnc2nc[nH]c12)c1cc2cccc(Cl)c2c(=O)n1-c1ccccc1
NUMERIC_RESULT: -2.34

MOLECULE: COc1ccc(CN2C3CC2CN(c2ccc(-c4cc(OCC(C)(C)O)cn5ncc(C#N)c45)cn2)C3)cn1
NUMERIC_RESULT: 0.858

MOLECULE: COC(=O)N[C@@H](C)CNc1nccc(-c2cn(C(C)C)nc2-c2cc(Cl)cc(NS(C)(=O)=O)c2F)n1
NUMERIC_RESULT: 4.44

###

Reported inhibition at 1 µM by item:
ASSAY_SYSTEM: panel of 255 wild-type kinases (Homo sapiens, UniProt P53350)
Sequence (P53350 whole entry): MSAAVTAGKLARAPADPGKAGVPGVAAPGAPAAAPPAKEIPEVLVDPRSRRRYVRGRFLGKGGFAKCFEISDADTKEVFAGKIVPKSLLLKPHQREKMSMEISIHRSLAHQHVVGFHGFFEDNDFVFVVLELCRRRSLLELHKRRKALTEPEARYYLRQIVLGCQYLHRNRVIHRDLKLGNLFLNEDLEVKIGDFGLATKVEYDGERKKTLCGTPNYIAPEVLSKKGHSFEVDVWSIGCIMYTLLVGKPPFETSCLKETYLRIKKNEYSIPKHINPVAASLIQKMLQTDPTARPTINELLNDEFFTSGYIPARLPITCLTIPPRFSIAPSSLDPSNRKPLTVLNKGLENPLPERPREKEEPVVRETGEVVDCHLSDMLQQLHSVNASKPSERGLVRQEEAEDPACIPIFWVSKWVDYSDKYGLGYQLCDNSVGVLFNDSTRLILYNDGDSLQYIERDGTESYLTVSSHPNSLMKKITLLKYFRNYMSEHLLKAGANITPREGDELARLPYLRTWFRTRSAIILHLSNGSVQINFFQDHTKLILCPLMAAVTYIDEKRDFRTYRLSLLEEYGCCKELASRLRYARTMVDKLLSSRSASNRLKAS
ASSAY_SUMMARY: Kinase panel profiling at 1 µmol/L (MSA or IMAP), percentage inhibition
Format: biochemical
CONDITION_SET: kinase PLK1; 1 µmol/L single concentration; read-out: %-inhibition at 1 µmol/L, PLK1

MOLECULE: COc1ccc(CN2C3CC2CN(c2ccc(-c4cc(OCC(C)(C)O)cn5ncc(C#N)c45)cn2)C3)cn1
inhibition at 1 µM: -0.437%

MOLECULE: CCN1CCN(c2ccc(Nc3cc(N(C)C(=O)Nc4c(Cl)c(OC)cc(OC)c4Cl)ncn3)cc2)CC1
inhibition at 1 µM: 0.613%

MOLECULE: CO[C@]1(C(=O)N[C@@H](C)c2ccc(-n3cc(F)cn3)nc2)CC[C@H](c2nc(C)cc(Nc3cc(C)[nH]n3)n2)CC1
inhibition at 1 µM: -2.47%

MOLECULE: CCN1C(=O)N(c2c(F)c(OC)cc(OC)c2F)Cc2cnc3[nH]c(CN4CCOCC4)cc3c21
inhibition at 1 µM: -1.52%

MOLECULE: Cn1cnc2c(F)c(Nc3ccc(Br)cc3Cl)c(C(=O)NOCCO)cc21
inhibition at 1 µM: -4%

MOLECULE: Cn1cc(-c2cc3c(N4CCN(c5ncc([C@@](C)(N)c6ccc(F)cc6)cn5)CC4)ncnn3c2)cn1
inhibition at 1 µM: -1.53%

MOLECULE: Cn1cnc2c(F)c(Nc3ccc(Br)cc3F)c(C(=O)NOCCO)cc21
inhibition at 1 µM: 0.406%

The reported numbers originate from paper PMC9516332.
